# Assay Details: Half life in male Sprague-Dawley rat at 1 mg/kg, iv measured for 0.25 to 24 hrs
# Type: ADME, organism-based
# Stated Conditions: in vivo, time 0.25-24 hrs
Measured Parameter: half-life (h)
Supply the numeric figure in h, leaving out any unit text.

Reported half-life for `Cc1cccc(C)c1NC(=O)[C@@H]1Cc2c([nH]c3ccccc23)C2(CN(c3ccccc3)C2)N1` : what is it?
1.27

----------
# Assay Details: Volume of distribution at steady state in male Sprague-Dawley rat at 1 mg/kg, iv measured for 0.25 to 24 hrs
# Type: ADME, organism-based
# Stated Conditions: in vivo, time 0.25-24 hrs, read-out: Vdss
Measured Parameter: Vd (L/kg)
Supply the numeric figure in L/kg, leaving out any unit text.

Reported Vd for `Cc1cccc(C)c1NC(=O)[C@@H]1Cc2c([nH]c3ccccc23)C2(CN(c3ccccc3)C2)N1` : what is it?
4.91

----------
# Assay Details: Half life in male Sprague-Dawley rat at 10 mg/kg, po measured for 0.25 to 24 hrs
# Type: ADME, organism-based
# Stated Conditions: in vivo, time 0.25-24 hrs
Measured Parameter: half-life (h)
Supply the numeric figure in h, leaving out any unit text.

Reported half-life for `Cc1cccc(C)c1NC(=O)[C@@H]1Cc2c([nH]c3ccccc23)C2(CN(c3ccccc3)C2)N1` : what is it?
5.07

----------
# Assay Details: Inhibition of RANKL/M-CSF-induced osteoclastogenesis in male C57/BL6 mouse bone marrow cells at 0.1 uM incubated for 5 to 7 days by TRAP staining based analysis relative to control
# Format: functional
# Stated Conditions: C57/BL6, Bone marrow cell, time 5-7 day
Measured Parameter: inhibition at 0.1 µM (%)
Supply the numeric figure in %, leaving out any unit text.

Some entries whose results are on file:
Cc1cccc(C)c1NC(=O)[C@@H]1Cc2c([nH]c3ccccc23)C2(CN(c3ccccc3)C2)N1 | 59.7
Cc1cccc(C)c1NC(=O)[C@H]1Cc2c3ccccc3[nH]c2[C@]2(C[C@H](c3ccccc3)C2)N1 | 12.3
COc1cccc(OC)c1NC(=O)[C@@H]1Cc2c3ccccc3[nH]c2[C@]2(C[C@H](c3ccccc3)C2)N1 | 11.5
Cc1cccc(C)c1NC(=O)[C@@H]1Cc2c([nH]c3ccccc23)C2(CN(c3cccnc3)C2)N1 | 11.5
Cc1cccc(C)c1NC(=O)[C@@H]1Cc2c3ccccc3[nH]c2[C@]2(C[C@H](c3ccccc3)C2)N1 | 29.2

Reported inhibition at 0.1 µM for `CC(C)c1ccccc1NC(=O)[C@@H]1Cc2c3ccccc3[nH]c2[C@]2(C[C@@H](c3ccccc3)C2)N1` : what is it?
26.5

Reported inhibition at 0.1 µM for `CC(C)c1cccc(C(C)C)c1NC(=O)[C@@H]1Cc2c3ccccc3[nH]c2[C@]2(C[C@@H](c3ccccc3)C2)N1` : what is it?
23.6

Reported inhibition at 0.1 µM for `CCc1ccc(N2CC3(C2)N[C@H](C(=O)Nc2c(C)cccc2C)Cc2c3[nH]c3ccccc23)cc1` : what is it?
25.1

Reported inhibition at 0.1 µM for `O=C(Nc1ccccc1F)[C@@H]1Cc2c3ccccc3[nH]c2[C@]2(C[C@@H](c3ccccc3)C2)N1` : what is it?
34.4

Reported inhibition at 0.1 µM for `CN(C)c1ccccc1NC(=O)[C@@H]1Cc2c3ccccc3[nH]c2[C@]2(C[C@@H](c3ccccc3)C2)N1` : what is it?
32.2

Reported inhibition at 0.1 µM for `Cc1cc2occ(CN(C)CCN(C)Cc3cn(-c4cccc(C(F)(F)F)c4)c4ccccc34)c(=O)c2cc1C` : what is it?
18.4

Reported inhibition at 0.1 µM for `CN(C)c1ccccc1NC(=O)[C@@H]1Cc2c3ccccc3[nH]c2[C@]2(C[C@H](c3ccccc3)C2)N1` : what is it?
10.2

Reported inhibition at 0.1 µM for `Cc1cccc(C)c1NC(=O)[C@H]1Cc2c([nH]c3ccccc23)C2(CN(c3ccccc3)C2)N1` : what is it?
42.9

Reported inhibition at 0.1 µM for `Cc1cccc(C)c1NC(=O)[C@@H]1Cc2c([nH]c3ccccc23)C2(CN(c3ccc(F)cc3)C2)N1` : what is it?
23.1

Reported inhibition at 0.1 µM for `COc1ccc(N2CC3(C2)N[C@H](C(=O)Nc2c(C)cccc2C)Cc2c3[nH]c3ccccc23)cc1` : what is it?
34.6

Reported inhibition at 0.1 µM for `CC(C)c1cccc(C(C)C)c1NC(=O)[C@@H]1Cc2c3ccccc3[nH]c2[C@]2(C[C@H](c3ccccc3)C2)N1` : what is it?
20.7
